target: human FXR-LBD (GST-FXR-LBD) (Homo sapiens, UniProt Q96RI1); construct: the human FXR-LBD (residues 234–472) was expressed as a GST fusion protein GST-FXR-LBD; made in house; host or cells: E. coli BL21(DE3); assay: HTRF coactivator recruitment assay, antagonist mode (in the presence of 50 μM CDCA); type: biochemical; settings: 250.00 μM compound + 50 μM CDCA; standardized to DMSO and 50 μM CDCA; replicates; read-out: Relative antagonist activity (%)
Below: a set of entries, each annotated with reported activity at 250 µM.
Field format: number, assumed %, no unit text.

Record excerpt, results attached:
>>> assay_value("CC(=O)c1cc2c(cc1C)C(C)(C)C(C)CC2(C)C (stereo not shown)")
31.2
>>> assay_value("Clc1ccc(COC(Cn2ccnc2)c2ccc(Cl)cc2Cl)c(Cl)c1 (stereo not shown)")
2.51
>>> assay_value("CCCCCCCC/C=C\\CCCCCCCC(=O)NCCO [OEA, oleoyl ethanolamide]")
89.5

Problem: Entry under review: O=P(Oc1ccccc1)(Oc1ccccc1)Oc1ccccc1 [TPHP, triphenyl phosphate] . Reported activity at 250 µM?
Result: 58.1

----------
Target: human FXR-LBD (GST-FXR-LBD) (Homo sapiens)
Construct: the human FXR-LBD (residues 234–472) was expressed as a GST fusion protein GST-FXR-LBD; made in house; host or cells: E. coli BL21(DE3)
Sequence (Q96RI1 234-472 isoform Q96RI1-2): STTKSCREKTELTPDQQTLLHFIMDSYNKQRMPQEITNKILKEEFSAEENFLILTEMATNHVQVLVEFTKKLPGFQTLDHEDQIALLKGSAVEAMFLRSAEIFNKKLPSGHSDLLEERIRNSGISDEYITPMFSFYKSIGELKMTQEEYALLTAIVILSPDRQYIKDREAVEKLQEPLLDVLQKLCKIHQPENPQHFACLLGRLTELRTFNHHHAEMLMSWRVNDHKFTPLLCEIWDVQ
Experiment: HTRF coactivator recruitment assay, antagonist mode (in the presence of 50 μM CDCA)
Assay type: biochemical
Conditions: 50 μM compound in the presence of 50 μM CDCA; standardized against positive control DY268 (50 μM = 100%)
Counter-ions that a name gives are not always drawn.
# note: boundary value 20% maps to no (0); Relative activity, antagonist mode below it maps to yes (1)

Below, 3 compounds whose answers are already recorded.
>>> class_name("COc1cccc(Cn2cc(C(=O)Nc3ccc(C)c(S(=O)(=O)N4CCOCC4)c3)c(-c3ccc(C)cc3)n2)c1 [DY268]")
"no (0)"
>>> class_name("CCCCC(CC)COC(=O)c1ccccc1C(=O)OCC(CC)CCCC (centres unmarked) [DEHP, bis(2-ethylhexyl) phthalate]")
"yes (1)"
>>> class_name("CCCCC(CC)COP(=O)(OCC(CC)CCCC)OCC(CC)CCCC (centres unmarked) [TEHP, tris(2-ethylhexyl) phosphate]")
"yes (1)"

Problem: Does the reported Relative activity, antagonist mode of CC1COC(=O)c2cc3c(cc21)C(C)(C)C(C)C3(C)C (centres unmarked) [GAX, galaxolidone] stay below 20%?
Result: yes (1)

Problem: Does the reported Relative activity, antagonist mode of CC(C)(C)c1cc(C=O)cc(C(C)(C)C)c1O [BHT-C, 3,5-Ditert-butyl-4-hydroxybenzaldehyde] stay below 20%?
Result: yes (1)

Problem: Does the reported Relative activity, antagonist mode of O=C1Nc2ccc(Cl)cc2[C@@](C#CC2CC2)(C(F)(F)F)O1 [EFV, efavirenz] stay below 20%?
Result: no (0)

Problem: Does the reported Relative activity, antagonist mode of CCCCOC(=O)CC(CC(=O)OCCCC)(OC(C)=O)C(=O)OCCCC [ATBC, acetyl tributyl citrate] stay below 20%?
Result: yes (1)

Problem: Does the reported Relative activity, antagonist mode of Oc1cc(Cl)ccc1Oc1ccc(Cl)cc1Cl [TLS, triclosan] stay below 20%?
Result: no (0)
